Measured shrunken log2 fold change accompanies every entry in the list below.
Test system: Escherichia coli TOP10;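 further: peptides expressed intracellularly from a pBAD plasmid library in pooled LB shake-flask culture, induced with 0.3% L-arabinose, DNA abundance read by NGS, three biological replicates, DESeq2 with apeglm shrinkage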
Assay: shrunken log2 fold change of peptide-encoding DNA abundance (4.5 h post-induction vs induction); higher = less antimicrobial activity (less host growth inhibition)
Conditions: time post-induction: 4.5 h; library: site-saturation at positions 5, 18, 19, 20
Answer with the value's number alone.

# example entries with known answers
>  <polymer-sequence>
RRIRKRPPRLPRPRPRPRYAPRP

>  <obs-value>
-0.129

$$$$
>  <polymer-sequence>
RRIRWRPPRLPRPRPRPKNMPRP

>  <obs-value>
-0.189

$$$$
>  <polymer-sequence>
RRIRPRPPRLPRPRPRPTHFPRP

>  <obs-value>
0.442

$$$$
>  <polymer-sequence>
RRIRKRPPRLPRPRPRPMDGPRP

>  <obs-value>
0.231

$$$$
>  <polymer-sequence>
RRIRWRPPRLPRPRPRPYYYPRP

>  <obs-value>
-0.473

$$$$
>  <polymer-sequence>
RRIRCRPPRLPRPRPRPQYEPRP

>  <obs-value>
-0.119

$$$$
>  <polymer-sequence>
RRIRYRPPRLPRPRPRPEQMPRP

>  <obs-value>
0.195

$$$$
>  <polymer-sequence>
RRIRYRPPRLPRPRPRPHPQPRP

>  <obs-value>
-0.0957

$$$$

Dear colleague, I am looking for the recorded shrunken log2 fold change of the following sequence: RRIRIRPPRLPRPRPRPSREPRP -0.0977

Dear colleague, I am looking for the recorded shrunken log2 fold change of the following sequence: RRIRRRPPRLPRPRPRPAENPRP 0.0557

Dear colleague, I am looking for the recorded shrunken log2 fold change of the following sequence: RRIRDRPPRLPRPRPRPFWIPRP -0.408

Dear colleague, I am looking for the recorded shrunken log2 fold change of the following sequence: RRIRNRPPRLPRPRPRPIKNPRP -0.108

Dear colleague, I am looking for the recorded shrunken log2 fold change of the following sequence: RRIRGRPPRLPRPRPRPSTEPRP 1.14

Dear colleague, I am looking for the recorded shrunken log2 fold change of the following sequence: RRIRCRPPRLPRPRPRPEGKPRP 0.31

Dear colleague, I am looking for the recorded shrunken log2 fold change of the following sequence: RRIRERPPRLPRPRPRPAFTPRP -0.0832
